These data points were gathered from patent US10774071B2.

# system.under.test: PD-1/PD-L1 (Homo sapiens (Human))
# run.description: PD-1/PD-L1 biochemical protein-protein interaction assay (ALPHA)
# Type: binding
# recorded.conditions: 0.3 nM His tagged PD-L1, 2.5 nM biotinylated Fc-PD-1, Table 3B, read-out: IC50 PD-L1-PD1
recorded.endpoint: pIC50
Quick note: pIC50 values are minus log10 of concentrations in mol/L.

Task: Field request: pIC50 | item: COc1nc(-c2cccc(-c3cccc4c3CC[C@@H]4Oc3nc(OC)c(CN4CC5CCC4(C(=O)O)CC5)cc3C(F)(F)F)c2Cl)ccc1CN1CC2(CCC(=O)N2)C1
Result: 10.19

Task: Quick one: COc1nc(-c2cccc(-c3cccc4c3CC[C@@H]4Oc3nc(OCc4ccc(-n5cccn5)nc4)c(CN4CC5(C(=O)O)CCC4CC5)cc3Cl)c2Cl)ccc1CNC[C@@H]1CCC(=O)N1
Result: 9.72

----------
Each entry below lists one item and its recorded AC50 value.
# system.under.test: UniProtKB Q9NZQ7
# run.description: PD-L1/PD-L1 dimerization biochemical protein-protein interaction assay (ALPHA)
# Type: binding
# recorded.conditions: 0.5 nM His tagged PD-L1 and 0.5 nM FLAG tagged PD-L1, Table 4B, read-out: AC50 PDL1 Dimer 1 nM
# value in nM; strip the unit string

Some entries whose results are on file:
compound	AC50 / nM
COc1cc(-c2cccc(-c3cccc4c3CC[C@@H]4Oc3nc(OC)c(CN4CC5(C(=O)O)CCC4CC5)cc3Cl)c2Cl)ccc1CNC[C@@H]1CCC(=O)N1	3.8
COc1nc(-c2cccc(-c3cccc4c3CC[C@@H]4Oc3nc(OC)c(CN4CCC[C@@H](C(=O)NS(C)(=O)=O)C4)cc3Cl)c2Cl)ccc1CNC[C@@H]1CCC(=O)N1	40.9

Proceeding to the next compound to report its AC50.
Task: Field request: AC50 | item: COc1nc(-c2cccc(-c3cccc4c3CC[C@@H]4Oc3nc(OC)c(CN4C[C@@H](C)[C@H](C(=O)O)C4)cc3Cl)c2Cl)ccc1CNC[C@@H]1CCC(=O)N1
Result: 20.1

----------
# system.under.test: PD-L1 (Homo sapiens (Human))
# run.description: PD-L1/PD-L1 dimerization biochemical protein-protein interaction assay (ALPHA)
# Assay type: binding
# recorded.conditions: 0.5 nM His tagged PD-L1 and 0.5 nM FLAG tagged PD-L1, Table 4A, read-out: AC50 PDL1 Dimer 1 nM
recorded.endpoint: AC50 (nM)
# value in nM; strip the unit string

compound	system.under.test	AC50 / nM
COc1nc(-c2cccc(-c3cccc4c3CC[C@@H]4Nc3nc(OC)c(CNC(C)(C)C(=O)O)nc3C(F)(F)F)c2Cl)ccc1CN[C@H]1C[C@](C)(O)C1	PD-L1 (Homo sapiens (Human))	21.2
COc1nc(-c2cccc(-c3cccc4c3CC[C@@H]4Nc3nc(OC)c(CN4CC(C)(O)C4)nc3C(F)(F)F)c2Cl)ccc1CN1CC[C@@H](C(=O)O)C1	PD-L1 (Homo sapiens (Human))	52.4
COc1nc(-c2cccc(-c3cccc4c3CC[C@@H]4Nc3nc(OC)c(CN[C@@H](C)C(=O)O)nc3C(F)(F)F)c2Cl)ccc1CN[C@H]1C[C@](C)(O)C1	PD-L1 (Homo sapiens (Human))	17.6

Task: Return AC50 measured with PD-L1 (Homo sapiens (Human)) given this compound: CNC(=O)CNCc1nc(C(F)(F)F)c(N[C@H]2CCc3c(-c4cccc(-c5ccc(CNC[C@@H]6CCC(=O)N6)c(OC)n5)c4Cl)cccc32)nc1OC
Result: 60.4

Task: Quick one: COc1nc(-c2cccc(-c3cccc4c3CC[C@@H]4Nc3nc(OC)c(CN4CC5(C(=O)O)CCC4CC5)nc3C(F)(F)F)c2Cl)ccc1CNC[C@@H]1CC(O)C(=O)N1 (stereo partly drawn)
Result: 22.3

Task: Quick one: COc1nc(-c2cccc(-c3cccc4c3CC[C@@H]4Nc3nc(OC)c(CN[C@@H](C)C(N)=O)nc3C(F)(F)F)c2Cl)ccc1CNC[C@@H]1CCC(=O)N1
Result: 43.1

----------
# system.under.test: PD-L1 (Homo sapiens (Human), UniProt Q9NZQ7)
# run.description: PD-L1/PD-L1 dimerization biochemical protein-protein interaction assay (ALPHA)
# Format: binding
# recorded.conditions: 0.5 nM His tagged PD-L1 and 0.5 nM FLAG tagged PD-L1, Table 4B, read-out: AC50 PDL1 Dimer 1 nM
Lab note - cut at 20 nM for AC50: met if strictly below, not met if not.

See these solved cases before continuing.
compound	assigned.label
COc1nc(O[C@H]2CCc3c(-c4cccc(-c5cnc(CNC[C@@H]6CCC(=O)N6)cn5)c4Cl)cccc32)c(Cl)cc1CN1CC[C@@H](C(=O)O)C1	not met
COc1nc(-c2cccc(-c3cccc4c3CC[C@@H]4Oc3nc(OC)c(CNC45CC(C(=O)O)(C4)C5)cc3Cl)c2Cl)ccc1CNC[C@@H]1CCC(=O)N1	not met
COc1nc(-c2cccc(-c3cccc4c3CC[C@@H]4Oc3nc(OCc4cncc(Cl)c4)c(CN4CC5(C(=O)O)CCC4CC5)cc3Cl)c2Cl)ccc1CNC[C@@H]1CCC(=O)N1	met

Task: Criterion: AC50 strictly below 20 nM. Is it met by COc1nc(-c2cccc(-c3cccc4c3CC[C@@H]4Oc3nc(OC)c(CN4CC5(CC5)C[C@H]4C(=O)O)cc3C(F)(F)F)c2Cl)ccc1CNC[C@@H]1CCC(=O)N1 ?
Result: met

Task: Quick one: COc1nc(-c2cccc(-c3cccc4c3CC[C@@H]4Oc3nc(OC)c(CN4CC(C)(C(=O)O)C4)cc3Cl)c2Cl)ccc1CNC[C@@H]1CCC(=O)N1
Result: met

----------
# system.under.test: PD-1/PD-L1 (Homo sapiens (Human), UniProt Q9NZQ7)
# Sequence (Q9NZQ7 19-238): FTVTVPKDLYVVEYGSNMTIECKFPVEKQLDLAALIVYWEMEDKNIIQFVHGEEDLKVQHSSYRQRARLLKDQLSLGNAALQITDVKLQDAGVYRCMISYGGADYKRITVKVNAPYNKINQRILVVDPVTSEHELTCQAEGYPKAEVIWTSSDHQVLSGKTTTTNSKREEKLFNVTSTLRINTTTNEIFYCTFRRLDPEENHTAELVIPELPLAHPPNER
# run.description: PD-1/PD-L1 biochemical protein-protein interaction assay (ALPHA)
# Assay type: binding
# recorded.conditions: 0.3 nM His tagged PD-L1, 2.5 nM biotinylated Fc-PD-1, readings of 0.064 nM are equal to or less than 0.064 nM, read-out: IC50 PD-L1-PD1
pIC50: −log10 of the molar value.
recorded.endpoint: pIC50

Task: Field request: pIC50 | item: COc1nc(-c2cccc(-c3cccc4c3CC[C@@H]4Nc3nc(OC)c(CN4CC5(C(=O)O)CCC4CC5)nc3C(F)(F)F)c2Cl)ccc1CNC[C@H]1CCC(=O)N1
Result: ≥ 10.19

Task: Quick one: COc1cc(-c2cccc(-c3cccc4c3CC[C@@H]4Nc3nc(OC)c(CN4CC[C@@H](C(=O)O)C4)nc3C(F)(F)F)c2Cl)cc(F)c1CNC[C@@H]1CCC(=O)N1
Result: ≥ 10.19

Task: Quick one: COc1nc(-c2cccc(-c3cccc4c3CC[C@@H]4Nc3nc(OC)c(CN[C@@H](C)C(=O)O)cc3C(F)(F)F)c2Cl)ccc1CN1CC(C)(O)C1
Result: ≥ 10.19

----------
# system.under.test: PD-1/PD-L1 (Homo sapiens (Human), UniProt Q9NZQ7)
# run.description: PD-1/PD-L1 biochemical protein-protein interaction assay (ALPHA)
# Assay type: binding
# recorded.conditions: 0.3 nM His tagged PD-L1, 2.5 nM biotinylated Fc-PD-1, readings of 0.064 nM are equal to or less than 0.064 nM, read-out: IC50 PD-L1-PD1
recorded.endpoint: IC50

compound	IC50
COc1nc(-c2cccc(-c3cccc4c3CC[C@@H]4Nc3nc(OC)c(CN4CCCC[C@@]4(C)C(=O)O)cc3C(F)(F)F)c2Cl)ccc1CN1CC(C)(O)C1 [A-52]	≤ 0.064 nM
COc1nc(-c2cccc(-c3cccc4c3CC[C@@H]4Nc3nc(OC)c(CN[C@@H](C)C(=O)O)nc3C(F)(F)F)c2Cl)ccc1CN1CC(O)C1 [A-72]	≤ 0.064 nM

Proceeding to the next compound to report its IC50.
Task: Field request: IC50 | item: COc1nc(-c2cccc(-c3cccc4c3CC[C@@H]4Nc3nc(OC)c(CNCC(=O)O)nc3C(F)(F)F)c2Cl)ccc1CNC[C@@H]1CCC(=O)N1 [A-107]
Result: ≤ 0.064 nM

----------
Each entry below lists one item and its recorded AC50 value.
# system.under.test: PD-L1 (Homo sapiens (Human), UniProt Q9NZQ7)
# run.description: PD-L1/PD-L1 dimerization biochemical protein-protein interaction assay (ALPHA)
# Assay type: binding
# recorded.conditions: 0.5 nM His tagged PD-L1 and 0.5 nM FLAG tagged PD-L1, Table 4A, read-out: AC50 PDL1 Dimer 1 nM
# value in nM; strip the unit string

compound	unit.of.measurement	AC50
COc1nc(-c2cccc(-c3cccc4c3CC[C@@H]4Nc3nc(OC)c(CNCC(=O)O)nc3C(F)(F)F)c2Cl)ccc1CN1CC(O)C1	nM	15.7

Task: Return AC50 measured with PD-L1 (Homo sapiens (Human), UniProt Q9NZQ7) given this compound: COc1nc(-c2cccc(-c3cccc4c3CC[C@@H]4Nc3nc(OC)c(CN(C)CC(=O)O)nc3C(F)(F)F)c2Cl)ccc1CNC[C@@H]1CCC(=O)N1
Result: 8.26

Task: Quick one: COc1nc(-c2cccc(-c3cccc4c3CC[C@@H]4Nc3nc(OC)c(CNCC(=O)O)nc3C(F)(F)F)c2Cl)ccc1CN[C@@H]1CCCC[C@@H]1O
Result: 8.98
